Observed property: melting point (°C)

COc1cc(C2c3cc4c(cc3C(O)C3COC(=O)C23)OCO4)cc(OC)c1OC (stereo unspecified); 228

[P] CC(C(O)c1ccc(O)cc1)N1CCC(Cc2ccccc2)CC1 (stereo unspecified)
[Q] CC(=O)OC1(C)Cc2c(C)c(C)c(C)c(C)c21 (stereo unspecified)
[R] Cc1cc(N=C2c3ccccc3CN2c2cc(C)on2)no1
QUERY: Task field, ranking: reported melting point, descending order. Thanks in advance for listing the labels in the requested order.
RESULT: R, P, Q

====

Observed property: melting point (°C)

Look over these answered cases.
Nc1ccc(N=Nc2ccccc2)c(N)n1; 139
CC1(C)C2CCC1(C)C(/N=C\c1ccc([N+](=O)[O-])cc1)C2/N=C/c1ccc([N+](=O)[O-])cc1 (stereo not given); 170
Cc1ccc(C#N)cc1F; 47
O=C(O)C=Cc1ccc([N+](=O)[O-])cc1; 289
COc1cc(OC)nc(Oc2cccc(Oc3nc(OC)cc(OC)n3)c2C(=O)ON=C(c2ccccc2)c2ccccc2)n1; 129
CCC(C)(C)N; -105
ICCc1ccc(CCI)cc1; 111
COc1cc(Oc2ccc(Cl)cc2Cl)ccc1[N+](=O)[O-]; 114

[A] CC(C)(C)c1cc(CO)cc(C(C)(C)C)c1O
[B] O=C1CCCCCCCCCCCCCCCO1
[C] CC(C)(C)c1cc([N+](=O)[O-])c(O)c([N+](=O)[O-])c1
QUERY: Ordering criterion: melting point; begin with the maximum. Hello, could you send the labels back in the order asked? Thank you.
RESULT: A, C, B
